Assay: pH solubility profile: one hour and three hour kinetic solubility in USP buffers at 0.05 M
Assay type: physicochemical
Details: aqueous buffer, thermodynamic from solid; pH 1.2; USP buffer 0.05 M; 25° C.
Attribute Measured: solubility at 3 h (µg/mL)
Answers are plain numbers, in µg/mL.

Look up solubility at 3 h for this compound: "CC(=O)[O-].CCO/N=C(\C(=O)N[C@@H]1C(=O)N2C(C(=O)O)=C(Sc3nc(-c4cc[n+](C)cc4)cs3)CS[C@H]12)c1nsc(NP(=O)(O)O)n1.O"
6000

###

Experiment: One hour kinetic solubility in DL arginine mixtures
Format: physicochemical
Details: USP buffer with DL arginine, 25 °C, aqueous buffer, thermodynamic from solid, DL arginine 0.1 M; 25° C.; read-out: Solubility at 1 hr
Attribute Measured: solubility at 1 h
Reply with a number, then the unit it belongs to.

Look up solubility at 1 h for this molecule: "CC(=O)[O-].CCO/N=C(\C(=O)N[C@@H]1C(=O)N2C(C(=O)O)=C(Sc3nc(-c4cc[n+](C)cc4)cs3)CS[C@H]12)c1nsc(NP(=O)(O)O)n1.O"
19 mg/mL

###

Test: Part B: multiple-dose IM injection pharmacokinetic study in healthy human subjects
Type: in vivo
Settings: human, in vivo, im, 600 mg, T1/2
Attribute Measured: half-life
Reply with a number, then the unit it belongs to.

Look up half-life for this compound: CCO/N=C(\C(=O)N[C@@H]1C(=O)N2C(C(=O)[O-])=C(Sc3nc(-c4cc[n+](C)cc4)cs3)CS[C@H]12)c1nsc(N)n1 [Ceftaroline, ceftaroline]
2.54 h

###

Experiment: One hour kinetic solubility in histidine mixtures
Assay type: physicochemical
Conditions: USP buffer with histidine, 25 °C, aqueous buffer, thermodynamic from solid, histidine 0.05 M
Attribute Measured: solubility at 1 h (mg/mL)
Answers are plain numbers, in mg/mL.

Look up solubility at 1 h for this compound: "CC(=O)[O-].CCO/N=C(\C(=O)N[C@@H]1C(=O)N2C(C(=O)O)=C(Sc3nc(-c4cc[n+](C)cc4)cs3)CS[C@H]12)c1nsc(NP(=O)(O)O)n1.O"
43

###

Assay: pH solubility profile: one hour and three hour kinetic solubility in USP buffers at 0.05 M
Assay type: physicochemical
Settings: aqueous buffer, thermodynamic from solid; pH 5.3; USP buffer 0.05 M; 25° C.
Attribute Measured: solubility at 1 h (mg/mL)
Answers are plain numbers, in mg/mL.

Look up solubility at 1 h for this molecule: CC(=O)[O-].CCO/N=C(\C(=O)N[C@@H]1C(=O)N2C(C(=O)O)=C(Sc3nc(-c4cc[n+](C)cc4)cs3)CS[C@H]12)c1nsc(NP(=O)(O)O)n1.O [ceftaroline fosamil]
26

###

Assay: One hour kinetic solubility in acetic acid/sodium acetate ion mixtures
Format: physicochemical
Settings: USP buffer with acetic acid/sodium acetate, 25 °C, pH 9, aqueous buffer, thermodynamic from solid, pH 9.0; acetic acid/sodium acetate 2.0 M; 25° C.; read-out: Solubility at 1 hr
Attribute Measured: solubility at 1 h (mg/mL)
Answers are plain numbers, in mg/mL.

Look up solubility at 1 h for this compound: CC(=O)[O-].CCO/N=C(\C(=O)N[C@@H]1C(=O)N2C(C(=O)O)=C(Sc3nc(-c4cc[n+](C)cc4)cs3)CS[C@H]12)c1nsc(NP(=O)(O)O)n1.O [ceftaroline fosamil]
159

###

Assay: One hour kinetic solubility in acetic acid/sodium acetate ion mixtures
Assay type: physicochemical
Details: acetic acid/sodium acetate buffer, 25 °C, pH 3, aqueous buffer, thermodynamic from solid, pH 3.0; acetic acid/sodium acetate 0.1 M; 25° C.; read-out: Solubility at 1 hr
Attribute Measured: solubility at 1 h (mg/mL)
One number for each entry, in mg/mL.

Look up solubility at 1 h for this molecule: "CC(=O)[O-].CCO/N=C(\C(=O)N[C@@H]1C(=O)N2C(C(=O)O)=C(Sc3nc(-c4cc[n+](C)cc4)cs3)CS[C@H]12)c1nsc(NP(=O)(O)O)n1.O"
20

###

Experiment: pH solubility profile: one hour and three hour kinetic solubility in USP buffers at 0.05 M
Format: physicochemical
Conditions: aqueous buffer, thermodynamic from solid; pH 8.0; USP buffer 0.05 M; 25° C.
Attribute Measured: solubility at 3 h (mg/mL)
Give bare numbers, in mg/mL.

Look up solubility at 3 h for this molecule: "CC(=O)[O-].CCO/N=C(\C(=O)N[C@@H]1C(=O)N2C(C(=O)O)=C(Sc3nc(-c4cc[n+](C)cc4)cs3)CS[C@H]12)c1nsc(NP(=O)(O)O)n1.O"
24

###

Experiment: Part A: single-dose IM injection and IV infusion pharmacokinetic study in healthy human subjects
Format: in vivo
Settings: human, in vivo, iv, Tmax following IV infusion
Attribute Measured: Tmax

Look up Tmax for this molecule: "CCO/N=C(\C(=O)N[C@@H]1C(=O)N2C(C(=O)[O-])=C(Sc3nc(-c4cc[n+](C)cc4)cs3)CS[C@H]12)c1nsc(N)n1"
~1 h

###

Assay: pH solubility profile: one hour and three hour kinetic solubility in USP buffers at 0.05 M
Assay type: physicochemical
Settings: aqueous buffer, thermodynamic from solid; pH 5.3; USP buffer 0.05 M; 25° C.
Attribute Measured: solubility at 3 h (mg/mL)
One number for each entry, in mg/mL.

Look up solubility at 3 h for this compound: CC(=O)[O-].CCO/N=C(\C(=O)N[C@@H]1C(=O)N2C(C(=O)O)=C(Sc3nc(-c4cc[n+](C)cc4)cs3)CS[C@H]12)c1nsc(NP(=O)(O)O)n1.O [ceftaroline fosamil]
26

###

Assay: pH solubility profile: one hour and three hour kinetic solubility in USP buffers at 0.05 M
Assay type: physicochemical
Settings: aqueous buffer, thermodynamic from solid; pH 3.7; USP buffer 0.05 M; 25° C.
Attribute Measured: solubility at 1 h (mg/mL)
Answers are plain numbers, in mg/mL.

Look up solubility at 1 h for this compound: "CC(=O)[O-].CCO/N=C(\C(=O)N[C@@H]1C(=O)N2C(C(=O)O)=C(Sc3nc(-c4cc[n+](C)cc4)cs3)CS[C@H]12)c1nsc(NP(=O)(O)O)n1.O"
36

###

Test: One hour kinetic solubility in acetic acid/sodium acetate ion mixtures
Format: physicochemical
Conditions: USP buffer with acetic acid/sodium acetate, 25 °C, pH 3.1, aqueous buffer, thermodynamic from solid, pH 3.1; acetic acid/sodium acetate 0.5 M; 25° C.; read-out: Solubility at 1 hr
Attribute Measured: solubility at 1 h (mg/mL)
Give bare numbers, in mg/mL.

Look up solubility at 1 h for this molecule: CC(=O)[O-].CCO/N=C(\C(=O)N[C@@H]1C(=O)N2C(C(=O)O)=C(Sc3nc(-c4cc[n+](C)cc4)cs3)CS[C@H]12)c1nsc(NP(=O)(O)O)n1.O [ceftaroline fosamil]
126

###

Assay: One hour kinetic solubility in acetic acid/sodium acetate ion mixtures
Type: physicochemical
Settings: USP buffer with acetic acid/sodium acetate, 25 °C, pH 3.9, aqueous buffer, thermodynamic from solid, pH 3.9; acetic acid/sodium acetate 2.0 M; 25° C.; read-out: Solubility at 1 hr
Attribute Measured: solubility at 1 h (mg/mL)
Answers are plain numbers, in mg/mL.

Look up solubility at 1 h for this compound: "CC(=O)[O-].CCO/N=C(\C(=O)N[C@@H]1C(=O)N2C(C(=O)O)=C(Sc3nc(-c4cc[n+](C)cc4)cs3)CS[C@H]12)c1nsc(NP(=O)(O)O)n1.O"
273

###

Assay: Linear calculated pharmacokinetic parameters following single dose IM injection
Type: in vivo, human
Conditions: human, in vivo, im, 1337 mg
Attribute Measured: Cmax (ng/mL)
Answers are plain numbers, in ng/mL.

Look up Cmax for this compound: "CCO/N=C(\C(=O)N[C@@H]1C(=O)N2C(C(=O)[O-])=C(Sc3nc(-c4cc[n+](C)cc4)cs3)CS[C@H]12)c1nsc(N)n1"
18800

###

Assay: Linear calculated pharmacokinetic parameters following single dose IM injection
Type: in vivo, human
Details: human, in vivo, im, 1337 mg
Attribute Measured: AUC(0-inf) (µg·h/mL)
One number for each entry, in µg·h/mL.

Look up AUC(0-inf) for this compound: "CCO/N=C(\C(=O)N[C@@H]1C(=O)N2C(C(=O)[O-])=C(Sc3nc(-c4cc[n+](C)cc4)cs3)CS[C@H]12)c1nsc(N)n1"
133

###

Experiment: Part A: single-dose IM injection and IV infusion pharmacokinetic study in healthy human subjects
Format: in vivo
Conditions: human, in vivo, im, 400 mg, T1/2
Attribute Measured: half-life (h)
Numbers only, in h.

Look up half-life for this molecule: "CCO/N=C(\C(=O)N[C@@H]1C(=O)N2C(C(=O)[O-])=C(Sc3nc(-c4cc[n+](C)cc4)cs3)CS[C@H]12)c1nsc(N)n1"
2.36

###

Assay: pH solubility profile: one hour and three hour kinetic solubility in USP buffers at 0.05 M
Type: physicochemical
Settings: aqueous buffer, thermodynamic from solid; pH 3.7; USP buffer 0.05 M; 25° C.
Attribute Measured: solubility at 3 h

Look up solubility at 3 h for this molecule: "CC(=O)[O-].CCO/N=C(\C(=O)N[C@@H]1C(=O)N2C(C(=O)O)=C(Sc3nc(-c4cc[n+](C)cc4)cs3)CS[C@H]12)c1nsc(NP(=O)(O)O)n1.O"
29 mg/mL

These entries and their values trace back to patent US20090082326A1.
